Test system: Sclerotinia sclerotiorum (Lib.) de Bary
EXPERIMENT SUMMARY: microbe, parasite or virus in culture
RECORDED CONDITIONS: read-out: Inhibition Ratio (%) / S. sclerotiorum
Param threshold (60%) applies to inhibition at 50 µg/mL; output true (1) when value >= threshold, false (0) when value < threshold.

Sample answers from the record:
>>> classification("N#Cc1c(Cl)c(Cl)c(Cl)c(C#N)c1Cl")
"true (1)"
>>> classification("OC1O[C@H](Cn2cc(-c3ccc(Cl)cc3)nn2)[C@H](OCc2ccccc2)[C@H]1O (stereo partly drawn)")
"false (0)"
>>> classification("CC(=O)OC1O[C@H](Cn2cc(-c3ccc([N+](=O)[O-])cc3)nn2)[C@H](OCc2ccccc2)[C@H]1OC(C)=O (stereo partly drawn)")
"false (0)"
>>> classification("COc1ccc(-c2cn(C[C@H]3OC(O)[C@H](O)[C@H]3OC)nn2)cc1 (stereo partly drawn)")
"false (0)"
>>> classification("CO[C@H]1[C@@H](Cn2cc(-c3ccc(Cl)cc3)nn2)OC(OC(C)=O)[C@@H]1OC(C)=O (stereo partly drawn)")
"false (0)"

Turning to the following molecule.
Query string: In plain terms: is recorded inhibition at 50 µg/mL at least 60% for CO[C@H]1[C@@H](Cn2cc(-c3ccc(Cl)cc3)nn2)OC(O)[C@@H]1O (stereo partly drawn) ?
Result string: false (0)

----------
Each entry below carries its recorded inhibition at 50 µg/mL.
Test system: Botrytis cinerea Pers
EXPERIMENT SUMMARY: microbe, parasite or virus in culture
RECORDED CONDITIONS: read-out: Inhibition Ratio (%) / B. cinerea
# number only, unit % dropped from output

Query string: Any idea what its inhibition at 50 µg/mL is? The molecule is CC(O)c1cn(C[C@H]2OC(O)[C@H](O)[C@H]2OCc2ccccc2)nn1 (stereo partly drawn) [4-g, Furan glucosyl-1,2,3-triazole (4-g)]
Result string: 12.1

Query string: Data request, read-out inhibition at 50 µg/mL, for CO[C@H]1[C@@H](Cn2cc(-c3ccccc3)nn2)OC(O)[C@@H]1O (stereo partly drawn) [3-a, Furan glucosyl-1,2,3-triazole (3-a)]
Result string: 33.3

Query string: Looking for the measured inhibition at 50 µg/mL of CO[C@H]1[C@@H](Cn2cc(-c3ccc(Cl)cc3)nn2)OC(OC(C)=O)[C@@H]1OC(C)=O (stereo partly drawn) [5-f, Furan glucosyl-1,2,3-triazole (5-f)] , can you help?
Result string: 27.6

----------
Test system: Sclerotinia sclerotiorum (Lib.) de Bary
EXPERIMENT SUMMARY: microbe, parasite or virus in culture
RECORDED CONDITIONS: read-out: Inhibition Ratio (%) / S. sclerotiorum
RECORDED METRIC: inhibition at 50 µg/mL (%)
Expressed in %, but write only the number.

Reference set (2 entries):
>>> observed("CO[C@H]1[C@@H](Cn2cc(-c3ccc([N+](=O)[O-])cc3)nn2)OC(O)[C@@H]1O (stereo partly drawn) [3-e, Furan glucosyl-1,2,3-triazole (3-e)]")
39.6
>>> observed("CO[C@H]1[C@@H](Cn2cc(-c3ccccc3)nn2)OC(O)[C@@H]1O (stereo partly drawn) [3-a, Furan glucosyl-1,2,3-triazole (3-a)]")
30.3

Query string: Please tell me: inhibition at 50 µg/mL of OC1O[C@H](Cn2cc(-c3ccc(F)cc3)nn2)[C@H](OCc2ccccc2)[C@H]1O (stereo partly drawn) [4-d, Furan glucosyl-1,2,3-triazole (4-d)] , system Sclerotinia sclerotiorum (Lib.) de Bary?
Result string: 34.7

Measured values drawn from paper PMC6017136 for this set.
